Values were extracted from ChEMBL document CHEMBL3507680.

Experiment: Human HepG2 cell viability assay in 384 well format
Assay type: toxicity, cell-based
Parameters: dose 125 nL, time 70.5 hour; concentration not given beside the values
Details: HepG2 cells, read-out: Inhibition

Molecule | cytotoxicity at 70.5 h, %
Cc1cc(N2CCOC(C(F)(F)F)C2)nc(-c2ccccc2)n1 (stereo not given) | -24.8
O=C(c1ccc2c(c1)COC2)N1CCN(CCO)CC1 | -3.79
O=C([C@H]1CC[C@@H]2[C@@H](CCN2C2CCCC2)O1)N1CCOCC1 | -12.8
O=C(c1[nH]nc(C2CC2)c1Cl)N1CCCC1 | 3.72
COCCN(C)CCN1CC2(CCN(C3CCCCC3)CC2)OC1=O | -4.75
COCCOc1cccc(CNC(=O)CN2CCN(C)CC2C)c1 (stereo not given) | 10.3
O=C(Nc1cc(-c2ccccc2)on1)N1CC[C@H](O)C1 | -1.65
CCN1CCN(c2ccc(CNC(=O)c3sccc3C)cn2)CC1 | -9.08
CCc1ccc2c(C3CN(CC4CCC4)C3)ncn2c1 | -6.64
Cc1c(F)cc(C(=O)O)cc1S(=O)(=O)Nc1ccc(C#N)cc1 | 19.6
CC(=O)N1CCN([C@@H]2CC[C@@H](NC(=O)c3cncc(C)c3)[C@H]2O)CC1 | 24
CN1CCN(C(=O)CCC(=O)c2cccs2)Cc2ccccc21 | -0.893
CCCC(NC(=O)c1cc(C)c(F)cc1F)c1nnn[nH]1 (stereo not given) | -2.37
Cc1ncc2c(n1)CN(Cc1nc(C)c(C)o1)CC2 | -100
Cc1nc(Cn2cc(C#N)c(=O)c3ccccc32)no1 | -5.75
Cc1cnn(C2CN(Cc3noc(C4CC4)n3)C2)c1 | -4.77
CC(C)c1nc(CN(C)C(=O)CNS(=O)(=O)c2cccs2)no1 | 46.6
CC(Nc1cccc(CN2CCOC2=O)c1)C(=O)Nc1ccccc1F (stereo not given) | -7.83
Cc1ccc(CS(=O)(=O)N2CC[C@H]3[C@H]2CC(=O)N3C)cc1 | -10.2
COc1nccc(N2CCN(Cc3ccc(C)cc3)C(=O)C2)c1C#N | 1.75
Cc1cccc(OCCC(=O)NCC(C)(C)C(N)=O)c1 | 5.99
CCOCc1ncn2c1CN(S(=O)(=O)c1cccc(C)c1)CC2 | -1.4
O=C(c1cnccn1)N1CCC2(CCCN(Cc3ccoc3)C2)C1 (stereo not given) | 11.3
O=c1cc(-c2ccncc2)nc(-c2ccc(CN3CC[C@@H](O)C3)cc2)[nH]1 | -11.3
COc1ccc(C2=CCN(C(=O)CN(C)CC(C)C#N)CC2)cc1 (stereo not given) | 44.4
O=C(Cc1ccc(S(=O)(=O)C(F)F)cc1)N1CCCC1 | -5.59
Cc1noc(C)c1C(=O)N(C)C(C)c1cccnc1 (stereo not given) | -15.6
CSc1c[nH]nc1NS(=O)(=O)c1ccc(C)c(C)c1 | -2.13
c1ccc(-c2nc(CNCCn3cccn3)cs2)nc1 | 19.2
CC(C)CN1CCc2c(CN(C)Cc3ccco3)cncc2C1 | 4.58
c1csc(CN2C[C@H]3CCC[C@@]3(COCC3CCOCC3)C2)n1 | 1.66
COc1ccccc1C1SCC(=O)Nc2c1c(=O)[nH]n2C1CCOCC1 (stereo not given) | -24.1
Cc1n[nH]c(C2CN(CC(=O)NCCc3ccccc3)CCO2)n1 (stereo not given) | 9
CC(=O)N(Cc1ncc(C)o1)C1CCN(CCNC2CCCCC2)C1 (stereo not given) | 9.67
Cc1ncsc1CN1C[C@@H]2COC[C@]2(C(=O)NC(C)C)C1 | -11.1
Cc1nn(C)c(N2CCOCC2)c1CNC1CCc2ccccc2C1 (stereo not given) | 16.6
CC(C)c1nc(C2CCCN(C(=O)c3ccc(N(C)C)nn3)C2)no1 (stereo not given) | -1.24
Cc1cc(C(=O)N2CCCS2(=O)=O)c(C)o1 | -9.77
Cc1cnn(CCNCc2ccc(S(C)(=O)=O)cc2)c1 | -4.97
Cc1ccc(C(=O)NS(=O)(=O)c2ccccc2Cl)c(=O)[nH]1 | 9.73

* * *

Measured cytotoxicity at 70.5 h values are reported for all entries that follow.
Assay: Human HepG2 cell viability assay in 384 well format
Assay type: toxicity, cell-based
Set-up: dose 125 nL, time 70.5 hour; concentration not given beside the values
Settings: HepG2 cells, read-out: Inhibition
Measured Attribute: cytotoxicity at 70.5 h

Molecule | Recorded Value
CC(C)n1cnc2c1C(C(=O)N(C)C)N(Cc1ccccc1)CC2 (stereo not given) | -3.01%
CCNC(=O)CCC(=O)Nc1nc(C)c(Cc2ccc(F)cc2)s1 | -1.26%
COc1cccc(-c2nc(CNCCCn3cccn3)cs2)c1 | -3.21%
COc1ccccc1CN(C)C(=O)CN1C(=O)OC[C@@H]1c1ccccc1 | 19.7%
CC(NC(=O)Cn1ccnc1)c1ccc(OCC2CC2)c(F)c1 (stereo not given) | 0.552%
NS(=O)(=O)N1CCc2ccc(NC(=O)CC(F)(F)F)cc21 | -1.59%
Cc1cccc(NC(=O)CN(C)C(=O)c2ccc(-n3cccc3)nc2)n1 | -4.2%
CN1CCC2(CC1)CN(C(=O)c1cccnc1)Cc1ccccc12 | 9.45%
COCCN1CCN(C(=O)NC2CC2)Cc2ccc(C)nc21 | -12.1%
Cc1nc(CN2CCC3(CC2)CCN(C(=O)c2cscn2)C3)cs1 | -13.7%
O=C(NCCCn1cccn1)c1nc2ccccc2[nH]1 | -10.1%
CNC(=O)c1cc2c(nc1NC(C)C)CCN(C(=O)NC(C)C)CC2 | -10.9%
c1ccc(CN2CCC3(CC2)CC(Nc2nccs2)CO3)nc1 (stereo not given) | -8.19%
CO[C@@H]1CC[C@H]2[C@H]1OCCN2S(=O)(=O)c1cn(C)cn1 | 0.221%
O=C(CCn1ccc2ccccc21)N1CCN(Cc2cccnc2)CC1 | 17.7%

* * *

Assay: Human HepG2 cell viability assay in 384 well format
Type: toxicity, cell-based
Design: dose 125 nL, time 70.5 hour; concentration not given beside the values
Settings: HepG2 cells, read-out: Inhibition

Molecule | cytotoxicity at 70.5 h [%]
COCCCN1CCCN(C(C)C(=O)Nc2cccc(I)c2)CC1 (stereo not drawn) | 21.2
CC(C(=O)N1CCCC1)N1CCC(c2nccn2Cc2cscn2)CC1 (stereo not drawn) | -9.41
N#Cc1nccnc1N1CCC(CSc2ccccc2)C1 (stereo not drawn) | -9.74
Cc1cc(C)n(CCCN(C)C(=O)CN2CC3(CCNCC3)OC2=O)n1 | -8.19
COc1cc(CNC(=O)N2CCCC2c2cc(C)no2)ccn1 (stereo not drawn) | -15.1
CCOC(=O)Cc1cs/c(=N/C(=O)COc2cnc(C)cc2O)[nH]1 | 5.42
CCc1nc(C2CCCN2C(=O)CCCOc2cccc(F)c2)no1 (stereo not drawn) | -18.6
N#Cc1c(CN2CCCC2Cn2cncn2)cn2ccccc12 (stereo not drawn) | -12.3

* * *

Assay: Human HepG2 cell viability assay in 384 well format
Type: toxicity, cell-based
Set-up: dose 125 nL, time 70.5 hour; concentration not given beside the values
Conditions: HepG2 cells, read-out: Inhibition

Compound | Scale Unit | cytotoxicity at 70.5 h
NC(=O)c1cc(C2CCCN(Cc3ccc4c(c3)OCCO4)C2)n[nH]1 (stereo unspecified) | % | -22.9
CCN(CC)Cc1ccc(C(=O)N2CCN(CC(C)O)CC2)cc1 (stereo unspecified) | % | -4.2
COc1ccccc1C(C)(C)NC(=O)Nc1ccc(F)c(C(N)=O)c1 | % | -4.97
CC(=O)c1cccc(OCCCC(=O)N(C)CCC(F)(F)F)c1 | % | -4.24
CC(C)N1CCC(N2CCCC(C(=O)NCC3(C)COC3)C2)CC1 (stereo unspecified) | % | -3.7
CN1CC(C(=O)NC(C)(C)C)CC1=O (stereo unspecified) | % | -9.06

* * *

Reported cytotoxicity at 70.5 h values are given for each entry in this list.
Assay: Human HepG2 cell viability assay in 384 well format
Type: toxicity, cell-based
Design: dose 125 nL, time 70.5 hour; concentration not given beside the values
Conditions: HepG2 cells, read-out: Inhibition

Molecule | Scale Unit | cytotoxicity at 70.5 h
COc1ccc(C(=O)N2CCCS2(=O)=O)cc1OC | % | -1.63
COc1ncccc1CN1CC[C@@]2(O)CCN(C(=O)C3CCC3)C[C@H]2C1 | % | -5.11
CC(c1ccco1)N(C(=O)c1cccc(C#N)c1)C1CC1 (configuration not stated) | % | -5.03
CO[C@H]1CCN(Cc2ccccn2)[C@@H]2CN(Cc3ccco3)C[C@H]12 | % | -20.1
COc1cccc(CCC(=O)N2CCC[C@@H](N)[C@@H]2c2ccccc2F)c1 | % | -1.81
CCCS(=O)(=O)N1CCC2(CCCC(=O)N2C)CC1 | % | -9.65
CCN(C)C(=O)c1cccc(S(=O)(=O)NCCc2nc(C)cc(=O)[nH]2)c1 | % | -22.4
CC(NC(=O)Cn1cccnc1=O)c1ccc(C(F)(F)F)cc1 (configuration not stated) | % | 12
O=C1OCCN1c1cccc(CNCc2cc(F)ccc2F)c1 | % | 22.6
CC(NC(=O)CCN1CCOC1=O)(c1ccccc1)c1ccccc1 | % | 0.0243
CCc1ccc(C(=O)N2CCCCC2CNS(C)(=O)=O)o1 (configuration not stated) | % | -2.32
Cc1nn(-c2ccccc2)cc1C(=O)N1CCCC1c1cnn(C)c1 (configuration not stated) | % | -6.59
CCN1CCN(c2ncnc3c2CCN(C(=O)C2CC2)C3)CC1 | % | 26.2
Cc1ncsc1CN1CCN(C2CCOCC2)CC(C(N)=O)C1 (configuration not stated) | % | 10.5
COCCN1CC[C@H]2OCC[C@@H](C(=O)Nc3cccnc3)[C@@H]2C1 | % | 53
CCc1ccc(C2CC(=O)Nc3n[nH]cc32)o1 (configuration not stated) | % | 0.796
c1cncc(OCCCNC2COc3ccccc3C2)c1 (configuration not stated) | % | -3.91
O=C(Cc1csc(N2CCNC2=O)n1)NCC1(c2ccccc2)CC1 | % | 24.5
CCCn1cnnc1CNC(=O)CC1C(=O)NCCN1CC=C(C)C (configuration not stated) | % | -0.65
CC(C)c1noc(Cn2ncn3cccc3c2=O)n1 | % | -6.57
CC(C)=CCN1C[C@H]2CC[C@@H]1CN(CCC(=O)NCc1ccco1)C2 | % | 30.2
COC1COC2(CCN(C(=O)c3ccc4ccccc4c3)CC2)C1 (configuration not stated) | % | -4.73
CCc1nnc(CN(C)Cc2cccc(C(=O)Nc3nccs3)c2)o1 | % | -1.25
COc1cccc(CNc2cc(C)nc(-c3ccncc3)n2)c1OC | % | -6.44
CN(C)c1cc(CNc2cncc(-n3cccn3)n2)ccn1 | % | -15.7
CN(C)CC(=O)N1CCC2(CC1)CN(c1ccsc1)C(=O)CO2 | % | 21
CN(C)c1ncc2c(O)nc(C3CCNCC3)cc2n1 | % | -6.95
